# Test system: MOLT-4
# assay_method_text: NCI tumour cell line growth inhibition, 48 h
The source made the active and inactive calls. Rule as the data show it: active = GI50 up to about 1.1 µM and inactive = higher.
Field 'call' accepts class 1 (active), class 0 (inactive)

compound	group
COC(=O)[C@@H]1C[C@@]2(C3C=CN(C(=O)C(F)(F)F)C=C3)c3ccccc3N(C(=O)C(F)(F)F)[C@H]2N1C(=O)OC	class 0
O=C1Cc2c(-c3cccs3)cc(-c3ccccc3)nc2-c2ccccc2N1	class 0
Nc1nc2c(-c3ccc([N+](=O)[O-])cc3)nnn2c2ccccc12	class 0
CCCc1cc(=O)oc2c3c(c4c(c12)OC(C)(C)C=C4)O[C@@H](C)[C@H](C)C3=O	class 0
CC1=CP(=O)(c2c(C(C)C)cc(C(C)C)cc2C(C)C)CCC1Cl (stereo not drawn)	class 0

Q. Which outcome was assigned to NC1=NN(c2ccccc2)C(=O)C1C(=O)C(=O)NC1C2CC3CC(C2)CC1C3 (stereo not drawn) in this test?
A. class 0

Q. Query: recorded result category for `N#Cc1cc(-c2nc3cc(F)ccc3s2)ccc1N` in this test
A. class 0

Q. Tell me the assay call for `CC(=O)O[C@H]1C[C@@H](OC(C)=O)[C@@](C)(O)[C@@H]2[C@@H](OC(C)=O)[C@@]3(O)[C@H](/C=C(/CCl)[C@H]4O[C@H]4[C@@H](OC(C)=O)[C@@]12C)OC(=O)[C@@H]3C` please.
A. class 0

Q. Called result for `Cc1ccc(S(=O)(=O)N(C=O)N=C2CCN(Cc3ccccc3)CC2)cc1`
A. class 0

Q. What did the test return for `CC(C(=O)NCCNC(=O)CCCC(=O)N(C)O)C(=O)NCCNC(=O)CCCC(=O)N(C)O` ?
A. class 0

Q. Please let me know the test result on file for `N#CC1=C(Cl)NC(Cl)=C(C#N)C1c1c(Cl)cccc1Cl` .
A. class 0

Q. Field: outcome | Entry: `Cn1[nH]nn/c1=N\N=C\c1ccccc1`
A. class 0

Q. Record request — test call for C[C@H]1[C@H](C)CC[C@]2(C(=O)OC3OC(CO)C(O)C(O)C3O)CC[C@]3(C)C(=CC[C@@H]4[C@@]5(C)C[C@H]6OC(=O)c7cc(O)c(O)c(O)c7-c7c(cc(O)c(O)c7O)C(=O)O[C@@H]6C(CO)(CO)[C@@H]5CC[C@]43C)[C@H]12 (stereo partly drawn)
A. class 0

Q. Outcome? `O=C1C=C(Sc2ccccc2)c2nccc3c2c1nc1ccccc13`
A. class 0

Q. Each compound tested received a call. Report the one for `OC(O)(C(F)(F)F)C(F)(F)F` .
A. class 0

Q. Name the outcome recorded for CCOC(=O)C1Cc2c(ccc(OC)c2OC)C(=O)C1N (stereo not drawn) in the assay.
A. class 0

Q. Test call, this compound: `O=c1c2cccnc2[nH]c2ccc3scnc3c12`
A. class 0

Q. Answer briefly: the call reported for `O=C(NNC(=O)c1ccccc1O)c1cccc(Br)c1` in this assay.
A. class 0

Q. Kindly provide the recorded test outcome for the following compound: `O=C(CSCC(=O)N/N=C\c1cc(Br)cc(Br)c1O)N/N=C\c1cc(Br)cc(Br)c1O`
A. class 0

Q. Hi, do you know how `COc1cc(-c2cc(CCC(=O)Nc3ccccc3[N+](=O)[O-])n(-c3ccc([N+](=O)[O-])cc3[N+](=O)[O-])n2)ccc1O` came out in this test?
A. class 0
